The measurements presented in this section are drawn from ChEMBL document CHEMBL1126841.

target: Platelet-activating factor receptor (Rattus norvegicus); assay: Intravenous dose required to reduce the arterial blood pressure caused by PAF by 50% in rats; format: functional
Provide the recorded ID50 for the entries that follow.
One number for each entry, in mg/kg.

Worked set:
Cc1ncccc1C(C#N)N1CCN(C(=O)CSC(c2ccccc2)c2ccccc2)CC1 (centres undefined): 0.058
Cc1ncccc1C(C#N)N1CCN(C(=O)CC(C)c2ccccc2)CC1 (centres undefined): 0.039
COC(=O)N(Cc1ccccc1)C(CC(=O)N1CCN(C(C#N)c2cccnc2C)CC1)c1ccccc1 (centres undefined): 0.066
CNC(=O)C(CC(=O)N1CCN(C(C#N)c2cccnc2C)CC1)c1ccccc1 (centres undefined): 0.05
Cc1ncccc1C(C#N)N1CCN(C(=O)C(C)(C)C(F)(c2ccccc2)c2ccccc2)CC1 (centres undefined): 0.34
CC(=O)NC(CC(=O)N1CCN(C(C#N)c2cccnc2C)CC1)c1ccccc1 (centres undefined): 0.035
Cc1ncccc1C(C#N)N1CCN(C(=O)CC(NCc2cccnc2)c2ccccc2)CC1 (centres undefined): 0.029
Cc1ncccc1C(C#N)N1CCN(C(=O)CC(c2ccccc2)c2ccccc2)CC1 (centres undefined): 0.015

For the next question, use this molecule.
response.value for Cc1ncccc1C(C#N)N1CCN(C(=O)CS(=O)(=O)C(c2ccccc2)c2ccccc2)CC1 (centres undefined) (field: ID50) = 0.11

###

species on record: Oryctolagus cuniculus; assay: In vitro inhibition of PAF-induced platelet aggregation in male rabbits; format: functional
observation.type: pIC50
Numbers only, as −log10 of the molar value.

// Cc1ncccc1C(C#N)N1CCN(C(=O)CC(c2ccccc2)N2C(=O)CCC2=O)CC1 (stereo unspecified) : pIC50 value = 7.16

###

molecular target: Platelet-activating factor receptor (Rattus norvegicus); assay: Intravenous dose required to reduce the arterial blood pressure caused by PAF by 50% in rats; assay type: functional
Provide the reported ID50 of each item.
Give bare numbers, in mg/kg.

CCOC(=O)NC(CC(=O)N1CCN(C(C#N)c2cccnc2C)CC1)c1ccccc1 (centres undefined): 0.025
Cc1ncccc1C(C#N)N1CCN(C(=O)C[S+]([O-])C(c2ccccc2)c2ccccc2)CC1 (centres undefined): 0.034
Cc1ncccc1C(C#N)N1CCN(C(=O)CC(O)(c2ccc(F)cc2)c2ccc(F)cc2)CC1 (centres undefined): 0.051
Cc1ncccc1C(C#N)N1CCN(C(=O)CC(c2ccccc2)N2CCCC2=O)CC1 (centres undefined): 0.026
Cc1ncccc1C(C#N)N1CCN(C(=O)CCC(c2ccccc2)c2ccccc2)CC1 (centres undefined): 0.028

Consider the following items and state reported ID50 for each.
1. Cc1ncccc1C(C#N)N1CCN(C(=O)CC(NC(=O)c2cccnc2)c2ccccc2)CC1 (centres undefined)
2. Cc1ncccc1C(C#N)N1CCN(C(=O)CC(NCc2ccccc2)c2ccccc2)CC1 (centres undefined)
3. Cc1ncccc1C(C#N)N1CCN(C(=O)CN(C(c2ccccc2)c2ccccc2)S(C)(=O)=O)CC1 (centres undefined)
4. COC(=O)N(C)C(CC(=O)N1CCN(C(C#N)c2cccnc2C)CC1)c1ccccc1 (centres undefined)

[0.029, 0.035, 0.083, 0.036]

###

For each of the molecules below, state its log10 ID50.
molecular target: Platelet-activating factor receptor (Mus musculus); assay: Dose required to inhibit PAF-induced mortality by 50% in mice; format: functional; settings: Mus sp.
Parameter value (number): base-10 log of ID50 in mg/kg.

Use the examples below as a reference point.
CNC(=O)C(CC(=O)N1CCN(C(C#N)c2cccnc2C)CC1)c1ccccc1 (centres undefined): -0.11
Cc1ncccc1C(C#N)N1CCN(C(=O)[C@H](CO)NC(c2ccccc2)c2ccccc2)CC1 (some centres undefined): 0.38
Cc1ncccc1C(C#N)N1CCN(C(=O)CC(NCc2ccccc2)c2ccccc2)CC1 (centres undefined): 0.08
C=CCNC(CC(=O)N1CCN(C(C#N)c2cccnc2C)CC1)c1ccccc1 (centres undefined): 0.00
CC(=O)N(CC(=O)N1CCN(C(C#N)c2cccnc2C)CC1)C(c1ccccc1)c1ccccc1 (centres undefined): 0.30
COC(=O)NC(CC(=O)N1CCN(C(C#N)c2cccnc2C)CC1)c1ccccc1 (centres undefined): -1.36

# map each molecule to its log10 ID50
1. CCc1ncccc1C(C#N)N1CCN(C(=O)CNC(c2ccccc2)c2ccccc2)CC1 (centres undefined)
2. CC(=O)NC(CC(=O)N1CCN(C(C#N)c2cccnc2C)CC1)c1ccccc1 (centres undefined)

[-0.15, -1.05]

# per-item lookup of log10 ID50; items listed below
1. Cc1ncccc1C(C#N)N1CCN(C(=O)CC(c2ccccc2)c2ccccc2)CC1 (centres undefined)
2. Cc1ncccc1C(C#N)N1CCN(C(=O)CNC(c2ccc(F)cc2)c2ccc(F)cc2)CC1 (centres undefined)

-0.05
0.48
